These entries and their values trace back to ChEMBL document CHEMBL1177816.

# method_description: Trough plasma concentration in Beagle dog at 4 mg/kg after 24 hrs
# Format: ADME, organism-based, Canis lupus familiaris
# Design: dose 4 mg/kg
Each entry below lists one item and its recorded concentration at 24 h value.
Respond with the bare value in nM.

CC[C@@H](CCC[C@@H](CO)N(CCC(C)C)S(=O)(=O)c1ccc(N)cc1)NC(=O)[C@@H](NC(=O)OC)C(c1ccccc1)c1ccccc1 5.1

For the next question, use this molecule.
Entry COC(=O)N[C@H](C(=O)N[C@@H](C)CCC[C@@H](CO)N(CCC(C)C)S(=O)(=O)c1ccc(N)cc1)C(c1ccccc1)c1ccccc1 : reported concentration at 24 h = ? 2

* * *

# method_description: AUC in Beagle dog at 4 mg/kg, po
# Assay type: ADME, organism-based, Canis lupus familiaris
# Parameters: dose 4 mg/kg, route oral
# experimental_context: plasma
Overview of reported AUC across a group of compounds:
Provide the reading as a plain figure in µM·h.

COC(=O)N[C@H](C(=O)N[C@@H](C)CCC[C@@H](CO)N(CCC(C)C)S(=O)(=O)c1ccc(N)cc1)C(c1ccccc1)c1ccccc1 0.32

Now consider the entry below.
Would you mind telling me what AUC value was observed for CC[C@@H](CCC[C@@H](CO)N(CCC(C)C)S(=O)(=O)c1ccc(N)cc1)NC(=O)[C@@H](NC(=O)OC)C(c1ccccc1)c1ccccc1 ? 1.05

* * *

# method_description: Half life in Beagle dog at 4 mg/kg, po
# Format: ADME, organism-based, Canis lupus familiaris
# Parameters: dose 4 mg/kg, route oral
# experimental_context: in vivo
endpoint: half-life

Suppose we examine the molecule CC[C@@H](CCC[C@@H](CO)N(CCC(C)C)S(=O)(=O)c1ccc(N)cc1)NC(=O)[C@@H](NC(=O)OC)C(c1ccccc1)c1ccccc1 ; what half-life value has been reported? 6 h

* * *

# assay_system: Protease (Human immunodeficiency virus 1, UniProt Q9YQ12)
# Sequence (Q9YQ12 whole entry): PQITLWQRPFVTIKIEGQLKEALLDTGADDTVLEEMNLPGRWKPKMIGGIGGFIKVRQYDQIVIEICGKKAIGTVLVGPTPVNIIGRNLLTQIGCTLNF
Reported IC50 values are given for each entry in this list.
Give the value in nM but do not write nM after it.

Illustrative cases are given below, each with its answer.
CC[C@@H](CCC[C@@H](CO)N(CCC(C)C)S(=O)(=O)c1ccc(N)cc1)NC(=O)[C@@H](NC(=O)OC)C(c1ccccc1)c1ccccc1 0.016
COC(=O)N[C@H](C(=O)N[C@H](CO)CCC[C@@H](CO)N(CCC(C)C)S(=O)(=O)c1ccc(N)cc1)C(c1ccccc1)c1ccccc1 0.013
COC(=O)N[C@H](C(=O)N[C@@H](CCC[C@@H](CO)N(CCC(C)C)S(=O)(=O)c1ccc(N)cc1)C(C)C)C(c1ccccc1)c1ccccc1 0.1
COC(=O)N[C@H](C(=O)N[C@H](C)CCC[C@@H](CO)N(CCC(C)C)S(=O)(=O)c1ccc(N)cc1)C(c1ccccc1)c1ccccc1 0.4

Query compound follows.
Form entry - test system: Protease (Human immunodeficiency virus 1, UniProt Q9YQ12); read-out: IC50; compound: COC(=O)N[C@H](C(=O)NCCCC[C@@H](CO)N(CC(C)C)S(=O)(=O)c1ccc(N)cc1)C(c1ccccc1)c1ccccc1 0.5
